System Tested: T1, EphA2 ligand binding domain (EphA2 LBD), residues 28-200 (UniProt P29317 28-200)
T1 construct: range 28-200; Expressed in E. coli; also called soluble EphA2 LBD; soluble monomeric EphA2 LBD
T1 sequence (P29317 other isoform, or with tags, fused parts or gaps limits assumed, form in doubt): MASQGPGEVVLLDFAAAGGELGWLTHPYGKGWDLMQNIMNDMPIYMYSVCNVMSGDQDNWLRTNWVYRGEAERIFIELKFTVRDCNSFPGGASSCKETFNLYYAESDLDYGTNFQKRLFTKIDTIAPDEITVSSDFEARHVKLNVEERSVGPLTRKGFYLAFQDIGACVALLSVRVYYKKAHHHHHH
Experimental Protocol: ITC, EphA2 LBD (200-250 µM) titrated into 10-12.5 µM peptide; single titration shown
Where no end group is shown, it is not given here. [ ]: non-standard residue; d: D form. βAla = NCCC(=O)O
Measured Parameter: Kd (µM)
Give a bare numeral; the unit µM is implied.

# return recorded Kd for input [βAla]WLAYPDSVPYGSGC (also: homodimer, disulfide at 15, other end not in the chain, C-terminally disulfide-linked homodimer made from monomer (9*); also called dimer (1); dimeric peptide (1)) [βA-WLA-YGSGC dimer (C-ter)]
3.76

Origin of values: patent US20230391826A1
